Reference source: PubChem BioAssay (EPA / NIEHS)

Molecular target: Retinoic acid receptor RXR-alpha (Homo sapiens) (UniProt P19793)
Sequence (P19793 whole entry, looked up): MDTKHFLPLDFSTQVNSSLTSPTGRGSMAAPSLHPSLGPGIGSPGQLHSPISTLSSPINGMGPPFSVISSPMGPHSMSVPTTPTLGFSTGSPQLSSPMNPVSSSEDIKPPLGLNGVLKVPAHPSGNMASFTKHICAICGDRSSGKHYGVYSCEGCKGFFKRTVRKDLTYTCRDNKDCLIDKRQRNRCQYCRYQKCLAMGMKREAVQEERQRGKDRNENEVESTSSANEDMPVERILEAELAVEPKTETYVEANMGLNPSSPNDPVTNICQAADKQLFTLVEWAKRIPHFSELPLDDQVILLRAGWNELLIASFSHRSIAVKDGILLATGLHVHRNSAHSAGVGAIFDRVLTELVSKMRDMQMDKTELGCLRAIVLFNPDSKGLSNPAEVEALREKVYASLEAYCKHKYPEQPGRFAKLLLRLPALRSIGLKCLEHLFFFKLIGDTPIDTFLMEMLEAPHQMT
Assay: OT_NURR1_NURR1RXRa_0480: Odyssey Thera (OT) 8-hour HEK293T Protein Complementation Assay for Nurr1/retinoid X receptor (RXR) (AID 2283385)
Inconclusive results are not listed. Active and inactive are the calls of the source. The calls were made as follows: active = hit-call score of the fitted dose curve at least 0.9, where 1 is the maximum; inconclusive = response in the unintended direction; inactive = score below 0.9.
Please reply with one of these outcomes: 1 = active, -1 = inactive

A selection of reference data follows.
CC(C)=CCC/C(C)=C/CO	-1
Cc1c(-c2cccnc2)c2ccccc2n1CCCCC(=O)O	-1
COc1cccc(-c2ccc(/C=C\CN3CCCCCC3)cc2Cl)c1	1
Nc1ccc(Nc2ccccc2)cc1	-1
CC/C(=C\C(=N/O)C(N)=O)C(C)[N+](=O)[O-] (configuration not stated)	1
COC(=O)c1ccccc1O	-1

Ask | For O=c1[nH]c2ccc(S(=O)CCN3CCC(Cc4ccc(F)cc4)CC3)cc2o1 (configuration not stated) , what call appears in the results of this test?
Reply | -1

Ask | Request: O=C(O)c1cccc(N(Cc2cccnc2)c2ccc(OC(F)F)c(OC(F)F)c2)c1
Reply | 1

Ask | Request: CCCCC(CC)COC(=O)c1ccc(C(=O)OCC(CC)CCCC)cc1 (configuration not stated)
Reply | -1

Ask | Request: Cc1[nH]cnc1C[C@H]1CCc2c(C)c3ccccc3n2C1=O
Reply | -1

Ask | Request: O=C(O)c1cc(N=Nc2ccc(S(=O)(=O)Nc3ccccn3)cc2)ccc1O
Reply | -1

Ask | Request: O=C(NS(=O)(=O)/C=C/c1ccccc1)c1ccc(F)cc1Cl
Reply | 1
